Catalogue of compounds with associated GI50
system: M14; assay: NCI tumour cell line growth inhibition, 48 h
The source made the active and inactive calls. No stated cut-off is given here; in the data, active = GI50 up to about 1.1 µM and inactive = higher.

The cases that follow already have their GI50 on record.
[[record]]
compound = "ClCC[N+]12CC[N+](CCCl)(CC1)C2"
assay_metric = "GI50"
observed_value = "> 100 µM (inactive)"

[[record]]
compound = "CC1CCC2(CC1)NN=c1s/c(=C\\c3ccc(O)cc3)c(=O)n1N2 (configuration not stated)"
assay_metric = "GI50"
observed_value = "> 100 µM (inactive)"

[[record]]
compound = "O=CN/C=C/c1ccccc1O"
assay_metric = "GI50"
observed_value = "> 100 µM (inactive)"

[[record]]
compound = "CCOC(=O)N/N=C(\\Cc1ccccc1)OCC"
assay_metric = "GI50"
observed_value = "> 100 µM (inactive)"

[[record]]
compound = "CCC1=C(c2ccc(OC)cc2)CC[C@]2(CCNC2=O)[C@@H]1C"
assay_metric = "GI50"
observed_value = "26.4 µM (inactive)"


Item O=C(CCC(=O)Nc1cccc(Cl)c1)CC(=O)c1ccc(Cl)cc1 has what recorded GI50?
> 100 µM (inactive)

Item O=C(N/N=C/c1cc(Cl)cc(Cl)c1O)c1ccncc1 has what recorded GI50?
> 100 µM (inactive)

Item NCCC1([N+](=O)[O-])C=CN=CC1 (configuration not stated) has what recorded GI50?
> 100 µM (inactive)

Item CC12CCCC(C#N)(C1)OC2=O (configuration not stated) has what recorded GI50?
> 100 µM (inactive)

Item CN1CCOC1(C)CO (configuration not stated) has what recorded GI50?
> 100 µM (inactive)

Item CCC/C=C/c1cc2c(cc1O)CC[C@@H]1[C@@H]2CC[C@]2(C)[C@@H](O)CC[C@@H]12 has what recorded GI50?
20.3 µM (inactive)

Item Cc1ccc(NC(=O)SCCC(=O)O)cc1 has what recorded GI50?
> 100 µM (inactive)

---

test system: OVCAR-5; assay: NCI tumour cell line growth inhibition, 48 h
Activity calls are given as the source filed them. No stated cut-off is given here; in the data, active = GI50 up to about 1.1 µM and inactive = higher.
I would appreciate it if you answered using one of these outcomes: active, inactive

Solved cases below.
[[record]]
molecule = "CC(=O)OC1COC(N2C(=O)C(=O)c3c(C)cc(Cl)nc32)C(OC(C)=O)C1OC(C)=O (stereo unspecified)"
assigned_category = "inactive"

[[record]]
molecule = "CC(C)(C)OC(=O)NC(Cc1ccc(O)cn1)C(N)=O (stereo unspecified)"
assigned_category = "inactive"

[[record]]
molecule = "Cc1nc(-c2cc3c(ccc4ccccc43)oc2=O)cc2c1c(=O)oc1ccc3ccccc3c12"
assigned_category = "inactive"

[[record]]
molecule = "CCOC(=O)/N=C(\\N)SCc1ccccc1"
assigned_category = "inactive"

[[record]]
molecule = "CN(CC(=O)O)S(=O)(=O)c1ccc(Cl)cc1"
assigned_category = "inactive"


Just curious, what result did COc1ccccc1CNCc1nc2ccccc2[nH]1 get here?
inactive

Just curious, what result did CC(=O)N1C(OC(C)C)CC(C)N1c1ccccc1 (stereo unspecified) get here?
inactive

Just curious, what result did COc1cccc(/C=C2/Sc3scc(-c4ccccc4)[n+]3C2=O)c1O get here?
inactive

Just curious, what result did CN(C)CCNc1ccc2c(=O)n(CCN(C)C)c(=O)n3c4ccccc4c(=O)c1c23 get here?
active

Just curious, what result did CCc1c(O)cc(=O)oc1-c1ccc(OC)c(OC)c1 get here?
inactive

Just curious, what result did O=C(Nc1cccc([N+](=O)[O-])c1)c1nnn(-c2cccc([N+](=O)[O-])c2)c1O get here?
inactive
